Below: a set of entries, each annotated with reported glycan array binding signal (z-score).
tested system: Gal3S(b1-4)[Fuc(a1-3)]GlcNAc6S
run description: glycan array binding signal (z-score within array); higher = stronger binding
run parameters: glycan notation: IUPAC condensed, linker removed
Only a selection was taken, and the strongest signals are over-represented in it overall.
Returns: the value as a bare number; no unit string appended.

[
  {
    "binder": "Epa1 (Candida glabrata) (protein) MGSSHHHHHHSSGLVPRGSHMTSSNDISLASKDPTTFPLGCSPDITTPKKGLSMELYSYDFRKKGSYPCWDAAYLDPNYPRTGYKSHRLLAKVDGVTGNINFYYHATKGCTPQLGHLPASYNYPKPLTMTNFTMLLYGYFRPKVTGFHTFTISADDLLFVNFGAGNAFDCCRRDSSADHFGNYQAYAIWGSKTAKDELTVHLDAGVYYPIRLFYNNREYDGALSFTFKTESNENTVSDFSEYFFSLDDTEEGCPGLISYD",
    "glycan array binding signal (z-score)": -0.394
  }
]

Let us move to another entry and its glycan array binding signal (z-score).
// glycan array binding signal (z-score) value for PNGase F (Flavobacterium meningosepticum) (protein) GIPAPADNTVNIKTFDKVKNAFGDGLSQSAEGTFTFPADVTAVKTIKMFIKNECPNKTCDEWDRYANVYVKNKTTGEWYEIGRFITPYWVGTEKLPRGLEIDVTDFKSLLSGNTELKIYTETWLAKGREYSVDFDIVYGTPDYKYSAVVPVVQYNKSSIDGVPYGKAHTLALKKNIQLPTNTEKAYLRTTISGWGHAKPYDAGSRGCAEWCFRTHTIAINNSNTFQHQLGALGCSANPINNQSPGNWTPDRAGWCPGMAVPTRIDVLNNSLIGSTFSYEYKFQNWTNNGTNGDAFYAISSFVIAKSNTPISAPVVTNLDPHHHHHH : 0.165

Data provenance is the supplement of paper PMC8728848.
